B1: Caulobacter ParB omega fusion; a variant is named by its letters at X, in order, B8GW30 (parent)
chain: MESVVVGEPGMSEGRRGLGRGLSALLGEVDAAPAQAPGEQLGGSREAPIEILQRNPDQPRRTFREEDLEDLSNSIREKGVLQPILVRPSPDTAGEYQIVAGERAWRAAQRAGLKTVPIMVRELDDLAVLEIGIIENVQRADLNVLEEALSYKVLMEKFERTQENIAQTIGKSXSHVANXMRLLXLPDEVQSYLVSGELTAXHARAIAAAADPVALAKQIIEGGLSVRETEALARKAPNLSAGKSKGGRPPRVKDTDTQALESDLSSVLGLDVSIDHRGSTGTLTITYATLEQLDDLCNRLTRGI

# Variants of: B1
# MEASUREMENT_NOTES: one-hybrid fitness for binding parS DNA (scaled: cognate 1, non-cognate 0); higher = stronger binding
# ASSAY_CONDITIONS: with parS DNA site
In all, about 81,000 sequences were measured (“one-hybrid fitness for binding parS DNA”: median about -0.17, highest 2% from about 0.51 on). The sample holds the highest values, similar sequences and a random draw of the others, so the mix is not that of the screen.

- VARIANT_KEY: "RQVC"
  one-hybrid fitness for binding parS DNA: 0.828
- VARIANT_KEY: "NGQK"
  one-hybrid fitness for binding parS DNA: "≤ 0.2"
- VARIANT_KEY: "HLKG"
  one-hybrid fitness for binding parS DNA: "≤ 0.2"
- VARIANT_KEY: "RNPG"
  one-hybrid fitness for binding parS DNA: 0.433
- VARIANT_KEY: "RNLS"
  one-hybrid fitness for binding parS DNA: 0.895
- VARIANT_KEY: "RLPQ"
  one-hybrid fitness for binding parS DNA: "≤ 0.2"
- VARIANT_KEY: "RGAC"
  one-hybrid fitness for binding parS DNA: 0.584
- VARIANT_KEY: "RGWC"
  one-hybrid fitness for binding parS DNA: 0.504
- VARIANT_KEY: "RVKY"
  one-hybrid fitness for binding parS DNA: 0.664
- VARIANT_KEY: "RNLN"
  one-hybrid fitness for binding parS DNA: 0.251
- VARIANT_KEY: "RQKC"
  one-hybrid fitness for binding parS DNA: 0.926
- VARIANT_KEY: "SKVC"
  one-hybrid fitness for binding parS DNA: "≤ 0.2"
- VARIANT_KEY: "SNSE"
  one-hybrid fitness for binding parS DNA: "≤ 0.2"
- VARIANT_KEY: "AGLI"
  one-hybrid fitness for binding parS DNA: "≤ 0.2"
- VARIANT_KEY: "RQVR"
  one-hybrid fitness for binding parS DNA: "≤ 0.2"
- VARIANT_KEY: "INPC"
  one-hybrid fitness for binding parS DNA: "≤ 0.2"
- VARIANT_KEY: "NRTE"
  one-hybrid fitness for binding parS DNA: "≤ 0.2"
- VARIANT_KEY: "PQAL"
  one-hybrid fitness for binding parS DNA: "≤ 0.2"
- VARIANT_KEY: "SSNE"
  one-hybrid fitness for binding parS DNA: "≤ 0.2"
- VARIANT_KEY: "RLIH"
  one-hybrid fitness for binding parS DNA: 0.21
- VARIANT_KEY: "PNTI"
  one-hybrid fitness for binding parS DNA: "≤ 0.2"
- VARIANT_KEY: "DWLL"
  one-hybrid fitness for binding parS DNA: "≤ 0.2"
- VARIANT_KEY: "NQNV"
  one-hybrid fitness for binding parS DNA: "≤ 0.2"
- VARIANT_KEY: "RRNM"
  one-hybrid fitness for binding parS DNA: 0.656
- VARIANT_KEY: "PDKP"
  one-hybrid fitness for binding parS DNA: "≤ 0.2"
- VARIANT_KEY: "AEWH"
  one-hybrid fitness for binding parS DNA: "≤ 0.2"
- VARIANT_KEY: "PWEY"
  one-hybrid fitness for binding parS DNA: "≤ 0.2"
- VARIANT_KEY: "QPAD"
  one-hybrid fitness for binding parS DNA: "≤ 0.2"
- VARIANT_KEY: "RCNM"
  one-hybrid fitness for binding parS DNA: 0.349
- VARIANT_KEY: "RRVN"
  one-hybrid fitness for binding parS DNA: 0.268
- VARIANT_KEY: "EYDG"
  one-hybrid fitness for binding parS DNA: "≤ 0.2"
- VARIANT_KEY: "LRPS"
  one-hybrid fitness for binding parS DNA: "≤ 0.2"
- VARIANT_KEY: "MAAA"
  one-hybrid fitness for binding parS DNA: "≤ 0.2"
- VARIANT_KEY: "AYIG"
  one-hybrid fitness for binding parS DNA: "≤ 0.2"
- VARIANT_KEY: "SLFE"
  one-hybrid fitness for binding parS DNA: "≤ 0.2"
- VARIANT_KEY: "DTFA"
  one-hybrid fitness for binding parS DNA: "≤ 0.2"
- VARIANT_KEY: "RLIT"
  one-hybrid fitness for binding parS DNA: 0.795
- VARIANT_KEY: "LNAY"
  one-hybrid fitness for binding parS DNA: "≤ 0.2"
- VARIANT_KEY: "RLPK"
  one-hybrid fitness for binding parS DNA: "≤ 0.2"
- VARIANT_KEY: "EGPL"
  one-hybrid fitness for binding parS DNA: "≤ 0.2"
- VARIANT_KEY: "RQKR"
  one-hybrid fitness for binding parS DNA: "≤ 0.2"
- VARIANT_KEY: "VLIA"
  one-hybrid fitness for binding parS DNA: "≤ 0.2"
- VARIANT_KEY: "RLPT"
  one-hybrid fitness for binding parS DNA: 0.58
- VARIANT_KEY: "VQGR"
  one-hybrid fitness for binding parS DNA: "≤ 0.2"
- VARIANT_KEY: "RTAA"
  one-hybrid fitness for binding parS DNA: 0.579
- VARIANT_KEY: "RPIL"
  one-hybrid fitness for binding parS DNA: "≤ 0.2"
- VARIANT_KEY: "HAPN"
  one-hybrid fitness for binding parS DNA: "≤ 0.2"
- VARIANT_KEY: "RNLD"
  one-hybrid fitness for binding parS DNA: "≤ 0.2"
- VARIANT_KEY: "RGRC"
  one-hybrid fitness for binding parS DNA: 0.798
- VARIANT_KEY: "DRGE"
  one-hybrid fitness for binding parS DNA: "≤ 0.2"
- VARIANT_KEY: "THKG"
  one-hybrid fitness for binding parS DNA: "≤ 0.2"
- VARIANT_KEY: "INTG"
  one-hybrid fitness for binding parS DNA: "≤ 0.2"
- VARIANT_KEY: "KGNG"
  one-hybrid fitness for binding parS DNA: "≤ 0.2"
- VARIANT_KEY: "FYDL"
  one-hybrid fitness for binding parS DNA: "≤ 0.2"
- VARIANT_KEY: "RNIG"
  one-hybrid fitness for binding parS DNA: 0.597
- VARIANT_KEY: "RQKK"
  one-hybrid fitness for binding parS DNA: "≤ 0.2"
- VARIANT_KEY: "RRKN"
  one-hybrid fitness for binding parS DNA: 0.84
- VARIANT_KEY: "RCKM"
  one-hybrid fitness for binding parS DNA: 0.402
- VARIANT_KEY: "FWGR"
  one-hybrid fitness for binding parS DNA: "≤ 0.2"
- VARIANT_KEY: "RGHC"
  one-hybrid fitness for binding parS DNA: 0.59
- VARIANT_KEY: "HTSF"
  one-hybrid fitness for binding parS DNA: "≤ 0.2"
- VARIANT_KEY: "RCKN"
  one-hybrid fitness for binding parS DNA: 0.463
- VARIANT_KEY: "HEHL"
  one-hybrid fitness for binding parS DNA: "≤ 0.2"
- VARIANT_KEY: "RQVF"
  one-hybrid fitness for binding parS DNA: "≤ 0.2"
- VARIANT_KEY: "TDIK"
  one-hybrid fitness for binding parS DNA: "≤ 0.2"
- VARIANT_KEY: "RNWP"
  one-hybrid fitness for binding parS DNA: "≤ 0.2"
